# pIC50 annotations
Molecular target: α4β1 integrin (Homo sapiens (Human), UniProt P05556+P13612)
Sequence (P13612 34-1032): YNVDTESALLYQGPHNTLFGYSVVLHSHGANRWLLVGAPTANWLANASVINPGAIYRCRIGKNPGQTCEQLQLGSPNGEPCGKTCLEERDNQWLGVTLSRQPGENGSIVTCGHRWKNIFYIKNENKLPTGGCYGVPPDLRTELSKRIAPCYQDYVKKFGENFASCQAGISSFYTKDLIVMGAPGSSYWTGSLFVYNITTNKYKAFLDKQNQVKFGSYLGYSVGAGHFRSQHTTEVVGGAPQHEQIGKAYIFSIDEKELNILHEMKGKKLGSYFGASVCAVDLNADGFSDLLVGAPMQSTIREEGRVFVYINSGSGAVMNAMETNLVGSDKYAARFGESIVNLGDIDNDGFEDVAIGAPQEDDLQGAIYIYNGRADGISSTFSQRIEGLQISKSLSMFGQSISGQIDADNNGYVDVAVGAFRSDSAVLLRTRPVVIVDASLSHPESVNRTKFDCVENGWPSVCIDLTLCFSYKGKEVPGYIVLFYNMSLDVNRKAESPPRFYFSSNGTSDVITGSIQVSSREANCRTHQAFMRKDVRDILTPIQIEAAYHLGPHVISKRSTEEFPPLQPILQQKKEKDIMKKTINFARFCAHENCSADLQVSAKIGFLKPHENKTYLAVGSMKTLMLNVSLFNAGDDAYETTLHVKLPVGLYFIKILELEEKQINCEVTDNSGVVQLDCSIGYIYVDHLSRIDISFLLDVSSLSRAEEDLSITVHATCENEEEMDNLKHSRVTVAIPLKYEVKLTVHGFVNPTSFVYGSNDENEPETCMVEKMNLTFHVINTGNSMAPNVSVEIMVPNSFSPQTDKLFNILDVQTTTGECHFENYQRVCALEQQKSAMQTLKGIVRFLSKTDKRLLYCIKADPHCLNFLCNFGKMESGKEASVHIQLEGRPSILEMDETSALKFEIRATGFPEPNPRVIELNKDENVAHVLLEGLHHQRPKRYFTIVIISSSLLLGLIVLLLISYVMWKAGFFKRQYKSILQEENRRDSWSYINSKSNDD
Sequence (P05556 21-798): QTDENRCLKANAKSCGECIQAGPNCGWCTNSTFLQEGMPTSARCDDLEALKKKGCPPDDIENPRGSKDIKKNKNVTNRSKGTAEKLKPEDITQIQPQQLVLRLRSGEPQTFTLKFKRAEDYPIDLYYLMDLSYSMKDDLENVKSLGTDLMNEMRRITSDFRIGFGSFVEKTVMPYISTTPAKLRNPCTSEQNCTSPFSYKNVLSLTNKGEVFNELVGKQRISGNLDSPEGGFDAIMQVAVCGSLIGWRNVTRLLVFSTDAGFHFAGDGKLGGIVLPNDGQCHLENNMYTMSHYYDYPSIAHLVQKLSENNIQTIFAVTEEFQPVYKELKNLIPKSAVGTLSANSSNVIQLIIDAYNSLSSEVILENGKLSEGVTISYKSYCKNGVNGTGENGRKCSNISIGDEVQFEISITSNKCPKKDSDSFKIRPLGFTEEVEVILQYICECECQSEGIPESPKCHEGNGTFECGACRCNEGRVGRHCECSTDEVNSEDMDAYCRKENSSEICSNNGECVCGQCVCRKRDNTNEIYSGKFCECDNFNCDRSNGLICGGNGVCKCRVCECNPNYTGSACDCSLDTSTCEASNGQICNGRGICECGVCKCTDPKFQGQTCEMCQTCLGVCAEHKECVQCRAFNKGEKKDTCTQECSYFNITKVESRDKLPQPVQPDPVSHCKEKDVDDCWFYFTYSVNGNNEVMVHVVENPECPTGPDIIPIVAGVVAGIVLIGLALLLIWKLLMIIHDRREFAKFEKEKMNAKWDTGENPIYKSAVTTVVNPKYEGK
Assay: Integrin Adhesion Assay: Protocol 5 (VCAM-coated plate, RPMI-8866 cells with stable LOF mutation of the ITGB7 gene)
Type: cell-based
Conditions: Protocol 5; RPMI-8866 cells with LOF mutation of ITGB7, VCAM; read-out: Mean IC50 α4β1 KO
pIC50: −log10 of the molar value.

Sample answers from the record:
{"columns": ["Smiles Representation", "System Name", "Assay Metric", "Endpoint Result"],
 "data": [
  ["COc1cc(CN2CCC(C)(C)CC2)cnc1-c1cccc2c(C[C@H](NC(=O)C3(C(F)(F)F)CCN(CC(F)F)CC3)C(=O)O)cccc12", "α4β1 integrin (Homo sapiens (Human), UniProt P05556+P13612)", "pIC50", "< 6.00"],
  ["O=C(O)[C@H](Cc1cccc2c(-c3nccc4cccc(CN5CCCCC5)c34)cccc12)NC(=O)C1(C(F)(F)F)CCN(CC(F)(F)F)CC1", "α4β1 integrin (Homo sapiens (Human), UniProt P05556+P13612)", "pIC50", "< 6.00"],
  ["COc1cc(CN2CCC[C@H](F)C2)cc(C(F)(F)F)c1-c1cccc2c(C[C@H](NC(=O)C3(C(F)(F)F)CCN(CC(F)(F)F)CC3)C(=O)O)cccc12", "α4β1 integrin (Homo sapiens (Human), UniProt P05556+P13612)", "pIC50", "< 6.00"],
  ["Cc1cc(CN2CCC(C(F)(F)F)CC2)cnc1-c1cccc2c(C[C@H](NC(=O)C3(C(F)(F)F)CCN(C4COC4)CC3)C(=O)O)cccc12", "α4β1 integrin (Homo sapiens (Human), UniProt P05556+P13612)", "pIC50", "< 6.00"],
  ["COc1cc(CN2CCCCC2)cc(Cl)c1-c1cccc2c(C[C@H](NC(=O)C3(C(F)(F)F)CCN(CC(F)(F)F)CC3)C(=O)O)cccc12", "α4β1 integrin (Homo sapiens (Human), UniProt P05556+P13612)", "pIC50", "6.00 to 7.00"]
]}

GET /values?readout=pIC50&item= COc1cccc(CN2CCC(F)CC2)c1-c1cccc2c(C[C@H](NC(=O)C3(C(F)(F)F)CCN(CC(F)(F)F)CC3)C(=O)O)cccc12
< 6.00

* * *

Target: α4β7 integrin (Homo sapiens (Human), UniProt P13612+P26010)
Sequence (P13612 34-1032): as the sequence (P13612 34-1032) above
Sequence (P26010 20-798): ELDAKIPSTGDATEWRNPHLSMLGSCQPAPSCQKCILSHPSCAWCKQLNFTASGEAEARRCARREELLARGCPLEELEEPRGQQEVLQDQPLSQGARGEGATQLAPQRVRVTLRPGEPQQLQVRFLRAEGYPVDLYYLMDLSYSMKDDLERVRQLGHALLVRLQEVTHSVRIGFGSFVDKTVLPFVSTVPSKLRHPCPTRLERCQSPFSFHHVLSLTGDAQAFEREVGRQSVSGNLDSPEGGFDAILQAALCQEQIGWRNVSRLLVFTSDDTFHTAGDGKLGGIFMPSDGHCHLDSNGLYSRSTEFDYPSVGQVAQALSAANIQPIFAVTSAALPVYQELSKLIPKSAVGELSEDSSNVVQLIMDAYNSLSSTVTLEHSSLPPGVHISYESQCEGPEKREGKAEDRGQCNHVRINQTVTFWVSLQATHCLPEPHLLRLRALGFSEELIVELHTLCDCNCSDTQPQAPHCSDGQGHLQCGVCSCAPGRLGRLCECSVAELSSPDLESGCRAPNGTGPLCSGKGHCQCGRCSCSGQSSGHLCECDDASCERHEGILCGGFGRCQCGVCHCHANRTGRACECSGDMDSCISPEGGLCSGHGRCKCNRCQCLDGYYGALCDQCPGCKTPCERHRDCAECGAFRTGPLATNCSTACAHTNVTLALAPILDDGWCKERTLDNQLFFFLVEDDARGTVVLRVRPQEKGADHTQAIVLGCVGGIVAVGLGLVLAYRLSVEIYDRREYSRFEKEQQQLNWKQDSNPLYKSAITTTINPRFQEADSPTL
Test: Integrin Adhesion Assay: Protocol 1 (MAdCAM-coated plate, RPMI-8866 cells, CellTiter GLO readout)
Assay type: cell-based
Details: integrin adhesion assay; determined by at least one of the assays described (protocol not specified)
# IC50 annotations

{"columns": ["Smiles Representation", "IC50"],
 "data": [
  ["Cn1ccc(=O)n(-c2cccc3c(C[C@H](NC(=O)C(F)(F)Sc4ccc(Cl)cc4Cl)C(=O)O)cccc23)c1=O", "> 1000 nM"],
  ["Cn1ccc(=O)n(-c2cccc3c(C[C@H](NC(=O)[C@@H]4C[C@H]5CC[C@@H](C4)N5CC(F)(F)F)C(=O)O)cccc23)c1=O", "> 1000 nM"],
  ["Cn1ccc(=O)n(-c2cccc3c(C[C@H](NC(=O)c4c(F)cc5c(c4F)CS(=O)(=O)N5)C(=O)O)cccc23)c1=O", "< 10 nM"],
  ["Cn1ccc(C(F)(F)F)c(-c2nccc3c(C[C@H](NC(=O)c4c(F)cc(N5CCOC[C@@H]5C(F)(F)F)cc4CN4CCOCC4)C(=O)O)cccc23)c1=O", "< 10 nM"],
  ["CCC1(C(=O)N[C@@H](Cc2cccc3c(-n4c(=O)ccn(C)c4=O)cccc23)C(=O)O)CCN(CC(F)(F)F)CC1", "10 to 100 nM"]
]}

Please look at the following compound next.
GET /values?readout=IC50&item= Cn1ccc(=O)n(-c2cccc3c(C[C@H](NC(=O)c4c(F)cc(N(CC(F)(F)F)CC(F)(F)F)cc4F)C(=O)O)cccc23)c1=O
< 10 nM

* * *

Target: α4β7 integrin (Homo sapiens (Human), UniProt P13612+P26010)
Assay: Integrin Adhesion Assay: Protocol 1 (MAdCAM-coated plate, RPMI-8866 cells, CellTiter GLO readout)
Assay type: cell-based
pIC50: −log10 of the molar value.
# pIC50 annotations

{"columns": ["Compound", "Assay Metric", "Endpoint Result"],
 "data": [
  ["Cn1c(C(=O)N[C@@H](Cc2cccc3c(-c4c(C(F)(F)F)c5ccccc5n(C)c4=O)cccc23)C(=O)O)cnc1C1CCOCC1", "pIC50", "6.00 to 7.00"]
]}

GET /values?readout=pIC50&item= Cc1cccc(F)c1C(=O)N[C@@H](Cc1cccc2c(-c3c(C(F)(F)F)c4cc(N(C)C)ccc4n(C)c3=O)cccc12)C(=O)O
6.00 to 7.00

GET /values?readout=pIC50&item= Cn1c(=O)c(-c2cccc3c(C[C@H](NC(=O)c4c(F)cc(N5CCOC[C@@H]5C(F)(F)F)cc4F)C(=O)O)cccc23)c(C(F)(F)F)c2ccccc21
7.00 to 8.00

GET /values?readout=pIC50&item= Cn1c(=O)c(-c2cccc3c(C[C@H](NC(=O)C4(C)CCN(C5CCOCC5)CC4)C(=O)O)cccc23)c(C(F)(F)F)c2ccccc21
7.00 to 8.00

GET /values?readout=pIC50&item= CN(C)Cc1ccc2c(-c3cccc4c(C[C@H](NC(=O)[C@]5(C)CC[C@@H](N6CCC(F)(F)CC6)CC5)C(=O)O)cccc34)nccc2c1
> 8.00

GET /values?readout=pIC50&item= Cn1c(=O)c(-c2cccc3c(C[C@H](NC(=O)c4c(F)cc(N(C5COC5)C5COC5)cc4F)C(=O)O)cccc23)c(C(F)(F)F)c2ccccc21
6.00 to 7.00

GET /values?readout=pIC50&item= Cn1c(=O)c(-c2cccc3c(C[C@H](NC(=O)c4c(F)cc(N5CCOC(CN6CCCC6)C5)cc4F)C(=O)O)cccc23)c(C(F)(F)F)c2ccccc21 (stereo partly drawn)
6.00 to 7.00

GET /values?readout=pIC50&item= Cn1c(=O)c(-c2cccc3c(C[C@H](NC(=O)c4c(F)cc(N5CCS(=O)(=O)CC5)cc4F)C(=O)O)cccc23)c(C(F)(F)F)c2ccccc21
7.00 to 8.00

GET /values?readout=pIC50&item= COCCN(CC(F)(F)F)c1cc(F)c(C(=O)N[C@@H](Cc2cccc3c(-c4c(C(F)(F)F)c5ccccc5n(C)c4=O)cccc23)C(=O)O)c(F)c1
7.00 to 8.00

* * *

Target: α4β7 integrin (Homo sapiens (Human), UniProt P13612+P26010)
Assay: Integrin Adhesion Assay: Protocol 1 (MAdCAM-coated plate, RPMI-8866 cells, CellTiter GLO readout)
Format: cell-based
# IC50 annotations

Sample answers from the record:
{"columns": ["Compound", "IC50"],
 "data": [
  ["Cn1c(=O)c(-c2cccc3c(C[C@H](NC(=O)c4c(F)cc(N5CCCC[C@@H]5C(F)(F)F)cc4F)C(=O)O)cccc23)c(C(F)(F)F)c2ccccc21 [Compound 318]", "100 to 1000 nM"],
  ["Cc1ccnc(C)c1-c1ccc(F)c(C(=O)N[C@@H](Cc2cccc3c(-c4c(C(F)(F)F)c5ccccc5n(C)c4=O)cccc23)C(=O)O)c1F [Compound 315]", "10 to 100 nM"],
  ["CN(C)c1ccc2c(c1)c(C(F)(F)F)c(-c1cccc3c(C[C@H](NC(=O)[C@]4(C)CC[C@@H](N5CCC(F)(F)CC5)CC4)C(=O)O)cccc13)c(=O)n2C [Compound 411]", "100 to 1000 nM"],
  ["CO[C@@H]1C[C@@H](c2cc(F)c(C(=O)N[C@@H](Cc3cccc4c(-c5c(C(F)(F)F)c6ccccc6n(C)c5=O)cccc34)C(=O)O)c(F)c2)N(C)C1 [Compound 464]", "100 to 1000 nM"]
]}

GET /values?readout=IC50&item= Cn1c(C(F)(F)F)cc(C(F)(F)F)c(-c2cccc3c(C[C@H](NC(=O)[C@]4(C)CC[C@H](N5CCC(F)(F)CC5)CC4)C(=O)O)cccc23)c1=O [Compound 406]
> 1000 nM

GET /values?readout=IC50&item= CN(C)Cc1cccc(F)c1C(=O)N[C@@H](Cc1cccc2c(-c3cccc4ccncc34)cccc12)C(=O)O [Compound 357]
10 to 100 nM

GET /values?readout=IC50&item= COCCc1cc(F)c(C(=O)N[C@@H](Cc2cccc3c(-c4c(C(F)(F)F)c5ccccc5n(C)c4=O)cccc23)C(=O)O)c(F)c1 [Compound 368]
100 to 1000 nM

GET /values?readout=IC50&item= Cn1c(=O)c(-c2cccc3c(C[C@H](NC(=O)c4c(F)cc(CCN5CC(F)C5)cc4F)C(=O)O)cccc23)c(C(F)(F)F)c2ccccc21 [Compound 371]
100 to 1000 nM

GET /values?readout=IC50&item= Cn1c(=O)c(-c2cccc3c(C[C@H](NC(=O)[C@]4(C)CC[C@H](N5CCOC[C@@H]5C(F)(F)F)CC4)C(=O)O)cccc23)c(C(F)(F)F)c2ccccc21 (single isomer, unassigned) [Compound 347]
10 to 100 nM

GET /values?readout=IC50&item= Cc1n[nH]c(C)c1-c1ccc(F)c(C(=O)N[C@@H](Cc2cccc3c(-c4c(C(F)(F)F)c5ccccc5n(C)c4=O)cccc23)C(=O)O)c1F [Compound 309]
10 to 100 nM

GET /values?readout=IC50&item= Cn1c(=O)c(-c2cccc3c(C[C@H](NC(=O)[C@]4(C)CC[C@@H](N5CCC(F)(F)CC5)CC4)C(=O)O)cccc23)c(C(F)(F)F)c2ccccc21 [Compound 401]
10 to 100 nM
